Numbers sourced from ChEMBL document CHEMBL1938315.

Biological target: Transient receptor potential cation channel subfamily A member 1 (Homo sapiens, UniProt O75762)
Sequence (O75762 whole entry): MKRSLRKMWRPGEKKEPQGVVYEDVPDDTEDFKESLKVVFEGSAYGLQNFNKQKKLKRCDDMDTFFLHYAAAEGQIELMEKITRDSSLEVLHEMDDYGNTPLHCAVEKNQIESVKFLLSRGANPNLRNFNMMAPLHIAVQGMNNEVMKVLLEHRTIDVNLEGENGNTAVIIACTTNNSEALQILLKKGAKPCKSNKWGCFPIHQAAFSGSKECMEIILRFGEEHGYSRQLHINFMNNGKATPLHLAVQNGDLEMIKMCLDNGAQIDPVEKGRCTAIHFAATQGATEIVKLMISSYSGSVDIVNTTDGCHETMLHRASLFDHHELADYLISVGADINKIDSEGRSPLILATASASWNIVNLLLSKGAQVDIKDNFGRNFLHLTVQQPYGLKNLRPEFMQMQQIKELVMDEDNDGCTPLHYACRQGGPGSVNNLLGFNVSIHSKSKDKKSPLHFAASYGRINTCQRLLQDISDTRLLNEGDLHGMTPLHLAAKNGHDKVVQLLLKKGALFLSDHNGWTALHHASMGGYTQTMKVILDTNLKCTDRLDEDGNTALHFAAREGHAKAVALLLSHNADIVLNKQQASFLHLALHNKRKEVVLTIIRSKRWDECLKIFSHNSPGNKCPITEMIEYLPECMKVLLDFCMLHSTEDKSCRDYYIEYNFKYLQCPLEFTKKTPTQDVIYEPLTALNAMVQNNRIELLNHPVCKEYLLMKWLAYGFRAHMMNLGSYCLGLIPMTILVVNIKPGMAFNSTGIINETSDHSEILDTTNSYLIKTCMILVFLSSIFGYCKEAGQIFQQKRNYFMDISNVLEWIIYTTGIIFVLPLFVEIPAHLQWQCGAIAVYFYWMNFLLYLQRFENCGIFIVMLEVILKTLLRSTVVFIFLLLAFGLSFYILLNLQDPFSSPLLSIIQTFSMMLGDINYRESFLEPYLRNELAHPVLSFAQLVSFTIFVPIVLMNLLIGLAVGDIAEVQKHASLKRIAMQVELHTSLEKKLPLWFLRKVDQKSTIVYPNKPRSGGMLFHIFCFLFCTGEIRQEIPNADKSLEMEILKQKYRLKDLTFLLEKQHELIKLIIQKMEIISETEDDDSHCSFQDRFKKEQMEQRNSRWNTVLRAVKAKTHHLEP
Assay: Antagonist activity at human TRPA1 expressed in HEK293 cells assessed as inhibition of 5H-dibenzo[b,e]azepine-10-carboxylic acid methyl ester-induced increase in intracellular calcium by Fluo4-AM based fluorometric assay
METRIC: pIC50
pIC50 is a log-scale quantity: -log10 of the concentration expressed in molar.

>  <MOLECULE>
O=C1C2=C(NC(=S)NC2c2cccc(OCCCCO)c2)c2ccccc21 (stereo unspecified)

>  <QUANTITATIVE READOUT>
7.15

$$$$
>  <MOLECULE>
COc1cccc(C2NC(=O)NC3=C2C(=O)c2ccccc23)c1 (racemic)

>  <QUANTITATIVE READOUT>
5.41

$$$$
>  <MOLECULE>
O=C1C2=C(NC(=S)N[C@@H]2c2ccccc2)c2ccccc21

>  <QUANTITATIVE READOUT>
6.11

$$$$
>  <MOLECULE>
O=C1C2=C(NC(=S)NC2c2cccc(O)c2)c2ccccc21 (stereo unspecified)

>  <QUANTITATIVE READOUT>
6.19

$$$$

The measured pIC50 associated with COc1cccc(C2NC(=S)NC3=C2C(=O)c2ccccc23)c1 (racemic) reads 6.89
